- Test system: NCI-H322M lung
- Measurement description: NCI-60 one-dose screen, 48 h (100 = growth as untreated, 0 = no growth, -100 = all killed)
- Assay conditions: 10 µM unless noted
This is part of a sample that, as a whole, favours compounds with a hit. Of some 83,000 tested, about 20% had one in any assay.
Property: growth (%)
Report only the number, with the unit % understood.

> print(dat)
                                   molecule  meas.value
1  O=C(c1ccccc1)C(O)C(Br)(CBr)c1ccccc1 (stereo not given)         101

Hi! What's the reported growth for O=C/C=C/c1ccc([N+](=O)[O-])cc1 on NCI-H322M lung? 104

Hi! What's the reported growth for CCOC(=O)C1=NN(c2ccccc2)C(=O)/C1=C\N1C(=O)/C(=C/c2cccc(O)c2)SC1=S on NCI-H322M lung? 98.9

Hi! What's the reported growth for N=C1C=C(N)C(=O)c2ccccc21 on NCI-H322M lung? -88.4

Hi! What's the reported growth for NC(=Nc1nc(-c2ccccn2)cc2ccccc12)c1ccccn1 on NCI-H322M lung? 21.6

Hello, the source for this data is PubChem BioAssay (NCI), in case you need it.
